Measured values drawn from ChEMBL document CHEMBL3632548 for this set.

biological target: RAC-alpha serine/threonine-protein kinase (Mus musculus); assay: Induction of Akt phosphorylation in mouse C2C12 cells at 30 ug/ml pretreated with compound for 24 hrs followed by fresh medium with compound addition measured after 2 hrs by Western blot analysis; assay type: cell-based
Active and inactive are the calls of the source. The rule behind the calls is not given here.
Return exactly one item of 1.0 (active), 0.0 (inactive)

CC(C)(O)CC[C@@H](O)[C@](C)(O)[C@H]1CC[C@@]2(O)C3=CC(=O)[C@H]4C[C@@H](O)[C@@H](O)C[C@]4(C)[C@@]3(O)CC[C@]12C : 1.0
CC(C)(O)CC[C@@H](O)[C@](C)(O)[C@H]1CC[C@@]2(O)C3=CC(=O)[C@@H]4C[C@@H](O)[C@@H](O)C[C@]4(C)[C@H]3CC[C@]12C [20-HYDROXYECDYSONE] : 0.0
CC(C)(O)CC[C@@H](O)[C@](C)(O)[C@H]1CC=C2C3=C(O)C(=O)[C@@H]4C[C@@H](O)[C@@H](O)C[C@]4(C)C3=CC[C@@]21C : 0.0

Recorded test outcome, item CC(C)(O)CC[C@@H](O)[C@](C)(O)[C@H]1CC=C2C3=C(CC[C@@]21C)[C@@]1(C)C[C@H](O)[C@H](O)CC1=C(O)C3=O 1.0
